Assay: reduction of polyQ htt aggregates in cells – imaging, exon1htt(103Q)mCFP cells, high-content imaging, primary screen (AID 483);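 also: compound exposure lasted 3 days before fixation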
Conditions: exon1htt(103Q)mCFP cell line, aggregate imaging, at 2 µM
The source made the active and inactive calls.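 The calls were made as follows: active = visual image review flags a hit and inhibition of aggregation exceeds 20%; inconclusive = visual hit but inhibition at or below 20%; inactive = no hit on visual image review.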
Outcome codes: Yes for active, No for inactive

# Compound, Label value
measured = [
    ("CCOC(=O)c1c(NC(=O)OC)sc2c1CCC2", "No"),
    ("CCOC(=O)C1=C(C)N(C)C(C)=C(C(=O)OCC)C1c1cccnc1", "No"),
    ("O=C(NCc1ccco1)C1CCN(c2ccc(N3CCOCC3)nn2)CC1", "No"),
    ("CN(C)S(=O)(=O)N1CCN(c2cccc(Cl)c2)CC1", "No"),
    ("Cc1cccc(NC(=O)CC2NC3CCCCC3NC2=O)c1 (stereo unspecified)", "No"),
    ("CSc1ccccc1NC(=O)C1CCCO1 (stereo unspecified)", "No"),
    ("Cc1onc(-c2ccccc2)c1C(=O)NCc1cccnc1", "No"),
    ("COc1ccccc1CN(Cc1nc2ccccc2c(=O)[nH]1)C(=O)Nc1ccccc1", "No"),
    ("O=S(=O)(c1ccc2c(c1)nc1n2CCC1)N1CCOCC1", "No"),
    ("Cn1c(=O)c2c(nc(N3CCN(c4ccccc4)CC3)n2CCCc2ccccc2)n(C)c1=O", "No"),
    ("O=C(CSc1nnc(-c2ccccn2)n1Cc1ccccc1)N1CCCC1", "No"),
    ("COc1ccc2c(=O)c3c(=O)n(Cc4ccco4)c(-c4cc(OC)c(OC)c(OC)c4)nc3oc2c1", "No"),
    ("COCCn1c(=O)[nH]c2cc(C(=O)N3CCN(c4ccccc4OC)CC3)ccc2c1=O", "No"),
    ("CC(=O)c1cccc(NC(=O)CCNS(=O)(=O)c2cccc3nsnc23)c1", "No"),
    ("Cc1cc(C(=O)Nc2sc3c(c2C#N)CCCCC3)cs1", "No"),
    ("CC1CCCCC1NC(=O)Cn1ncc2ccccc21 (stereo unspecified)", "No"),
    ("Cc1ccc2cc(C(c3nnnn3CC3CCCO3)N3CCc4ccccc4C3)c(=O)[nH]c2c1 (stereo unspecified)", "No"),
    ("CCOC(=O)c1cccc(NC(=O)CSc2nc3ccccc3c(=O)n2CC)c1", "No"),
    ("COC(=O)c1ccc(CNC(=O)COc2ccccc2Br)o1", "No"),
    ("CCC(=O)c1ccc(OCCN2CCOCC2)cc1", "No"),
    ("Cc1cc(NC(=O)CS(=O)(=O)c2cn(Cc3cccc(F)c3)c3ccccc23)no1", "No"),
    ("CCC(=O)c1ccc(OC(=O)c2ccc(Br)o2)cc1", "No"),
    ("Cc1occc1C(=O)Nc1ccc(S(=O)(=O)N2CCN(C)CC2)cc1", "No"),
    ("Nc1ccc(S(=O)(=O)c2cccc(N)c2)cc1", "No"),
    ("Cc1cc(NC(=O)Cn2cnc3c(cnn3C(C)(C)C)c2=O)no1", "No"),
    ("CN(C)S(=O)(=O)N1CCN(C(=O)N(c2ccccc2)c2ccccc2)CC1", "No"),
    ("CCn1c(=O)cc(SCC(=O)NCCN2CCN(Cc3ccccc3)CC2)c2ccccc21", "No"),
    ("COCCCNS(=O)(=O)c1ccc2c(c1)CCN2C(C)=O", "No"),
    ("Cc1ccc(C)c(-c2nc3cc(N)ccc3o2)c1", "No"),
    ("CC1CCc2c(sc3c2C2=NS(=O)(=O)CCN2C=N3)C1 (stereo unspecified)", "No"),
    ("O=C(CCC(=O)N(c1cccc(F)c1)C(C(=O)NC1CCCC1)c1ccncc1)Nc1cccnc1 (stereo unspecified)", "No"),
    ("c1ccc(Cn2nnc3c(N4CCC5(CC4)OCCO5)ncnc32)cc1", "No"),
    ("COc1ccc(C(=O)OC(COc2ccccc2)Cn2ccnc2)cc1 (stereo unspecified)", "No"),
    ("O=C(CSc1ncn[nH]1)NC1CC2CCC1C2 (stereo unspecified)", "No"),
    ("Nn1c(SCC(=O)Nc2ccc(S(=O)(=O)N3CCCC3)cc2)nnc1C(F)(F)F", "No"),
    ("Cc1ccc(-c2nn[nH]n2)cc1", "No"),
    ("CCOC(=O)c1sc(NC(=O)c2c(C)nn(Cc3ccccc3)c2C)cc1C", "Yes"),
    ("Cn1c(=O)[nH]c(=O)c2c1nc(N1CCCCCC1)n2CCCSc1nc2ccccc2o1", "No"),
    ("Cc1ccnc(NS(=O)(=O)c2ccc(NC(=O)Cc3cccs3)cc2)n1", "No"),
    ("Cc1c(NC(=O)c2cnn3c2NC(c2ccco2)CC3C(F)(F)F)c(=O)n(-c2ccccc2)n1C (stereo unspecified)", "No"),
    ("Cc1cc2c(=O)n(Cc3ccco3)c(SCC(=O)NCc3ccco3)nc2s1", "No"),
    ("CCOc1cc(C2NC(=O)N(C)C(C)=C2C(=O)OC)cc(Br)c1O (stereo unspecified)", "No"),
    ("COCC(=O)N(Cc1ccccc1)c1ccccn1", "No"),
    ("CC(C)CC(=O)N1CCN(S(=O)(=O)c2ccc(F)cc2)CC1", "No"),
    ("O=C(NC1CCCCC1)c1nc2c(nnn2Cc2ccccc2Cl)c(=O)[nH]1", "No"),
    ("O=C(Nc1cccnc1)Nc1ccc(F)c(Cl)c1", "No"),
]

====

Target: Voltage-gated potassium channel subunit beta-2 (Rattus norvegicus)
Assay: inhibitors of rat Kvbeta2 reductase activity – biochemical, NADPH fluorescence, primary screen (AID 622);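 also: slope of raw intensity against log time taken from 70 to 1610 s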
Details: recombinant KvBeta, 4-cyanobenzaldehyde reduction, at 10 µM, stronger effect = higher value
The reader will find reported fluorescence slope values listed item by item below.
Result type: fluorescence slope

# Compound, Numeric value
rows = [
    ("CN(C)C=Nc1nonc1N", -0.584),
    ("Cc1cccc(NC(=O)CC2NC3CCCCC3NC2=O)c1 (stereo unspecified)", -0.358),
    ("Cn1c(=O)[nH]c(=O)c2c1nc(N1CCCCCC1)n2CCCSc1nc2ccccc2o1", -0.609),
    ("CC1Cc2ccccc2N1C(=O)COC(=O)Cn1nnc(-c2ccccc2)n1 (stereo unspecified)", -0.583),
    ("Cc1ccc(S(=O)(=O)N2CCCC(C(=O)NC3=NCCS3)C2)cc1 (stereo unspecified)", -0.601),
    ("Cc1[nH]nc2c1C(C1CC=CCC1)C(C#N)=C(N)O2 (stereo unspecified)", -0.459),
]

====

# inhibition listing for each entry below
Test: inhibitors of TNFa-induced NFkB p65 translocation, primary screen, imaging, HUVEC, MLSMR starter and 10KST1 sets (AID 438);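 also: compound added about 3h40 before a 20 min TNFalpha stimulation; signal is the nuclear over cytoplasmic p65 intensity ratio per well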
Conditions: HUVEC TNFa-induced p65 nuclear translocation; at 2 µM, stronger effect = higher value, 0% TNFa-plus-vehicle, 100% no-TNFa wells
Active and inactive are the calls of the source.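 Rule for the calls: active = inhibition above 20% together with a positive visual image hit; inconclusive = visual image hit but inhibition not above 20%; inactive = no visual image hit.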

# Compound, inhibition
rows = [
    ("O=C(COC(=O)c1cc(S(=O)(=O)N2CCOCC2)cs1)c1ccccc1", "-5.5% (inactive)"),
    ("CCOC(=O)c1[nH]c(C)c(C(=O)Nc2ccccc2C)c1C", "12.1% (inactive)"),
    ("Cc1ccccc1NS(=O)(=O)c1cc(C(=O)N2CCCC2)ccc1C", "-7.1% (inactive)"),
    ("CCOC(=O)C1=C(N)OC2=C(C(=O)CC(C)(C)C2)C1c1ccoc1 (stereo unspecified)", "-12.9% (inactive)"),
    ("Cn1c(=O)[nH]c(=O)c2c1nc(N1CCCCCC1)n2CCCSc1nc2ccccc2o1", "4.7% (inactive)"),
    ("Cc1ccc(S(=O)(=O)C(C#N)c2nc3ccccc3nc2OC(C)C)cc1 (stereo unspecified)", "0% (inactive)"),
    ("CCCC(=O)Nc1ccc(C(=O)O)cc1NC(=O)CCC", "-4.3% (inactive)"),
    ("Cc1ccc(/C(O)=C2\\C(=O)C(=O)N(CCCN(C)C)C2c2ccccn2)cc1 (stereo unspecified)", "0.9% (inactive)"),
    ("OC1(c2cccc(C(F)(F)F)c2)CCNCC1", "1.4% (inactive)"),
    ("CCOC(=O)c1c(N)c(C#N)nn1-c1ccccc1C(=O)OC", "-3.6% (inactive)"),
    ("CCOc1cc(N2CCOCC2)c(OCC)cc1NC(=O)COC(=O)CCc1c[nH]c2ccccc12", "-5.2% (inactive)"),
]

====

Target: Voltage-gated potassium channel subunit beta-2 (Rattus norvegicus) (UniProt P62483)
Sequence (P62483 whole entry, looked up): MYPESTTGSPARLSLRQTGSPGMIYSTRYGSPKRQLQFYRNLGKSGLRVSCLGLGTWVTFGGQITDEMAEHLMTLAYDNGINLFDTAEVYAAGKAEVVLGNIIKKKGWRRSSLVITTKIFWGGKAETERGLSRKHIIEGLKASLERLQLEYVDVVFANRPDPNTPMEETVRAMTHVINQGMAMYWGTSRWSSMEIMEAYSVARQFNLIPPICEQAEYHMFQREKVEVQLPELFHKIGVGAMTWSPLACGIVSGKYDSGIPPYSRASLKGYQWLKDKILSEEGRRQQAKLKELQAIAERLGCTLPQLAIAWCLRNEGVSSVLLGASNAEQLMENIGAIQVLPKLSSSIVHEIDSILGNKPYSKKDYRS
Experiment: inhibitors of rat Kvbeta2 reductase activity – biochemical, NADPH fluorescence, primary screen (AID 622);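 also: slope of raw intensity against log time taken from 70 to 1610 s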
Conditions: recombinant KvBeta, 4-cyanobenzaldehyde reduction, at 10 µM, stronger effect = higher value
Listing: fluorescence slope of selected compounds
Result type: fluorescence slope

# Compound, Numeric value
measured = [
    ("COc1ccccc1CC(=O)NCC1CCCO1 (configuration not stated)", -0.329),
    ("O=C(NCC(c1cccnc1)N1CCN(c2ccc(F)cc2)CC1)OCc1ccccc1 (configuration not stated)", -0.605),
    ("C#CC(CO)N(CCN(Cc1ccccc1)C(C#C)CO)Cc1ccccc1 (configuration not stated)", -0.329),
    ("O=c1cc(C(F)F)oc2c1ccc1ccccc12", -0.349),
    ("CN(CCNC(=O)c1ccc(N2CCCC2=O)cc1)CCc1ccccc1", -0.393),
    ("COc1ccc(NC(C)=O)cc1NC(=O)CN1CCN(c2ccccn2)CC1", -0.526),
    ("Cc1cn(C2CC3OCC3O2)c(=O)[nH]c1=O (configuration not stated)", -0.399),
    ("O=S1(=O)CCN2C(=N1)SC1=C2CCN(Cc2ccccc2)C1", -0.434),
    ("Clc1ccc(OCCCn2cncn2)cc1Cl", -0.523),
    ("COCCNC(=O)CN(C)S(=O)(=O)c1ccc2c(c1)OCCO2", -0.527),
    ("Nc1nc(-c2ccccc2)cc(C(F)(F)F)n1", -0.571),
    ("CSc1ccccc1NC(=O)c1noc2c1CCC2", -0.593),
]

These measurements were taken from PubChem BioAssay.
